assay.method.text: Stability in the presence of fetal calf serum
Assay type: in vitro ADME
condition.notes: bovine; fetal calf serum 95%, 37° C., 24 h; read-out: Relative concentration of compound (% of initial concentration)
test.readout: remaining at 24 h (%)
Numeric answer only, unit % assumed.

-- ask Quote remaining at 24 h reported for COc1cc(NC(C)CCCNC(=O)[C@@H]2CCC(=O)N2)c2ncccc2c1 (some centres unmarked) please.
-- reply 107

-- ask Return remaining at 24 h (reported value) for this compound: COc1cc(NC(C)CCCNC(=O)CC[C@H](N)C(=O)O)c2ncccc2c1 (some centres unmarked)
-- reply 51

====

assay.method.text: Hydrolysis in the presence of lysosomal enzymes
Type: in vitro ADME, rat
condition.notes: rat, liver lysosomal enzyme fraction, pH 4.5, 6 h, read-out: Relative concentration of primaquine (PQ) from derivative
Answer each item with its documented metabolised at 6 h.
Give a bare numeral; the unit % is implied.

-- ask Determine its reported metabolised at 6 h: COc1cc(NC(C)CCCNC(=O)CC[C@H](N)C(=O)O)c2ncccc2c1 (some centres unmarked)
-- reply 0

-- ask Recall and state the measured metabolised at 6 h for COc1cc(NC(C)CCCNC(=O)[C@@H]2CCC(=O)N2)c2ncccc2c1 (some centres unmarked) .
-- reply 0

====

assay.method.text: Stability in the presence of fetal calf serum
Format: in vitro ADME
condition.notes: bovine; fetal calf serum 95%, 37° C., 2 h; read-out: Relative concentration of primaquine (PQ) from derivative
test.readout: metabolised at 2 h (%)
Hi! Could you send only the number? It should be in %, unit omitted.

-- ask Recall and state the measured metabolised at 2 h for COc1cc(NC(C)CCCNC(=O)[C@@H]2CCC(=O)N2)c2ncccc2c1 (some centres unmarked) .
-- reply 0

-- ask Using known records, supply metabolised at 2 h for COc1cc(NC(C)CCCNC(=O)CC[C@H](N)C(=O)O)c2ncccc2c1 (some centres unmarked)
-- reply 4

====

assay.method.text: Stability in the presence of fetal calf serum
Format: in vitro ADME
condition.notes: bovine; fetal calf serum 95%, 37° C., 48 h; read-out: Relative concentration of compound (% of initial concentration)
test.readout: remaining at 48 h (%)
Please reply with the bare figure in % and do not write the unit itself.

-- ask Note remaining at 48 h for the compound shown: COc1cc(NC(C)CCCNC(=O)[C@@H]2CCC(=O)N2)c2ncccc2c1 (stereo partly shown)
-- reply 87

====

Can you tell me LD50 for the items I'm about to list?
assay.method.text: Acute toxicity in mice after a single i.v. administration
Format: in vivo
condition.notes: mouse, in vivo, iv, single i.v., mg PQ diphosphate equivalent/kg
Record the value in mg/kg, omitting the unit from your answer.

-- ask Tell me measured LD50 for COc1cc(NC(C)CCCNC(=O)C[C@H](N)C(=O)O)c2ncccc2c1 (stereo partly shown) please.
-- reply 164

-- ask Return value of LD50 for input COc1cc(NC(C)CCCNC(=O)[C@@H]2CCC(=O)N2)c2ncccc2c1 (stereo partly shown) , no commentary.
-- reply 159

-- ask Indicate its recorded LD50; the molecule in question is COc1cc(NC(C)CCCNC(=O)CC[C@H](N)C(=O)O)c2ncccc2c1 (stereo partly shown)
-- reply 169

-- ask Complete the entry with LD50 for COc1cc(NC(C)CCCNC(=O)[C@@H](N)CC(=O)O)c2ncccc2c1 (stereo partly shown)
-- reply 165

====

Assignment: determine reported MTD for the given compounds.
assay.method.text: Acute toxicity in mice after a single i.v. administration
Assay type: in vivo
condition.notes: mouse, in vivo, iv, single i.v., mg PQ diphosphate equivalent/kg; weight loss not exceeding 5% during 5 days; read-out: Maximum tolerated dose (MTD)
Write down the numeric answer in mg/kg and omit the unit.

-- ask Consider the compound COc1cc(NC(C)CCCNC(=O)CC[C@H](N)C(=O)O)c2ncccc2c1 (some centres unmarked) and give its recorded MTD.
-- reply 117

-- ask Output MTD of COc1cc(NC(C)CCCN)c2ncccc2c1 (centres unmarked) [Primaquine, reference compound]
-- reply 24

-- ask Identify measured MTD associated with COc1cc(NC(C)CCCNC(=O)C[C@H](N)C(=O)O)c2ncccc2c1 (some centres unmarked)
-- reply 109

-- ask Return the recorded MTD value; entry: COc1cc(NC(C)CCCNC(=O)[C@@H]2CCC(=O)N2)c2ncccc2c1 (some centres unmarked)
-- reply 126

-- ask Consider the compound COc1cc(NC(C)CCCNC(=O)[C@@H](N)CC(=O)O)c2ncccc2c1 (some centres unmarked) . State its measured MTD.
-- reply 107

====

Kindly supply the reported metabolised at 2 h values for the records listed here.
assay.method.text: Hydrolysis in the presence of lysosomal enzymes
Assay type: in vitro ADME, rat
condition.notes: rat, liver lysosomal enzyme fraction, pH 4.5, 2 h, read-out: Relative concentration of primaquine (PQ) from derivative
Kindly report the value followed by its unit.

-- ask // Input: COc1cc(NC(C)CCCNC(=O)[C@@H]2CCC(=O)N2)c2ncccc2c1 (some centres unmarked) . Output its metabolised at 2 h only.
-- reply 0%

-- ask Please list metabolised at 2 h recorded for the compound COc1cc(NC(C)CCCNC(=O)CC[C@H](N)C(=O)O)c2ncccc2c1 (some centres unmarked)
-- reply 0%

====

assay.method.text: Hydrolysis in the presence of lysosomal enzymes
Format: in vitro ADME, rat
condition.notes: rat, liver lysosomal enzymes, pH 4.5, 37° C., 6 h, read-out: Relative concentration of compound (% of initial concentration)
test.readout: remaining at 6 h (%)
Supply the numeric figure in %, leaving out any unit text.

-- ask For the molecule COc1cc(NC(C)CCCN)c2ncccc2c1 (stereo not drawn) [Primaquine, reference compound] , report remaining at 6 h.
-- reply 87

-- ask For the molecule COc1cc(NC(C)CCCNC(=O)CC[C@H](N)C(=O)O)c2ncccc2c1 (stereo partly drawn) , give its reported remaining at 6 h.
-- reply 101

-- ask // Input: COc1cc(NC(C)CCCNC(=O)[C@@H]2CCC(=O)N2)c2ncccc2c1 (stereo partly drawn) . Output its remaining at 6 h only.
-- reply 96
